measurementKind: melting point

# annotated cases, reported melting point shown
compound: COc1ccc(N2CCN(Cc3n[nH]c4c(F)cccc34)CC2)cc1
valueMeasured: 178 to 179 °C
//
compound: COc1ccc(-c2noc3c2C(c2ccc(OC)c(O)c2)C2=C(COC2=O)N3)cc1 (stereo unspecified)
valueMeasured: 219 to 221 °C
//
compound: CCCOc1ccc2c(c1)C(=O)CCO2
valueMeasured: 50 to 52 °C

get_value(item= CN(C)C(=O)OCCOc1ccc(CC(NC(=O)OC(C)(C)C)C(O)CNCC(O)C(Cc2ccccc2)NC(=O)O)cc1 (stereo unspecified) , readout=melting point) returns 128 to 132 °C

get_value(item= NC(=O)N1CC(Oc2ccccn2)C1 , readout=melting point) returns 133 to 137 °C

get_value(item= CC12C=CC(=O)C=C1CCC1C3CC(OCCOC4CCCCO4)C(O)(C(=O)CCl)C3(C)CC(O)C12F (stereo unspecified) , readout=melting point) returns 168 to 170 °C

get_value(item= CCCCCC(Cc1cnc(CCCC)n1Cc1ccccc1Cl)C(=O)O (stereo unspecified) , readout=melting point) returns 124 to 127 °C

get_value(item= Cc1noc(-c2ncn3c2[C@@H]2CCCN2C(=O)c2c-3ccc(F)c2Cl)n1 , readout=melting point) returns 245 to 246 °C

* * *

The entries below are paired with their reported melting point.

# annotated cases, reported melting point shown
compound: COC(=O)COc1ccc(C(=O)Nc2ccccc2Sc2ccccc2-c2nnn[nH]2)cc1
melting point: 204 to 205 °C
//
compound: CCCCC(=O)NCc1ccc2c(c1)C(=O)N(C1CCC(=O)NC1=O)C2=O (stereo not given)
melting point: 184 to 186 °C
//
compound: CON=C(C#N)C(=O)Nc1ccc(OC(F)C(F)(F)F)cc1 (stereo not given)
melting point: 109 to 110 °C
//
compound: CCNc1nc2ccc(CCc3nc4cc(C)ccn4c3C)cc2s1
melting point: 165 to 166 °C
//
compound: O=S(=O)(c1ccccc1)N1CCC(C(=NCc2ccc(F)cc2)c2ccc(F)cc2)CC1
melting point: 114 to 116 °C
//
compound: CCc1nnc(CCCOc2c(C)cc(-c3noc(C)n3)cc2C)s1
melting point: 83 to 84 °C
//
compound: CCCOc1ccc(-c2ncc(C#N)c(Cl)n2)cc1
melting point: 193 to 194 °C
//
compound: CN1C(=O)C2CCCN2Cc2ccccc21 (stereo not given)
melting point: 120 to 122 °C
//
compound: CCN(CC)CC1CCCCN1CCNC(=O)N1c2cc(C)ccc2C(=O)Nc2cccnc21 (stereo not given)
melting point: 183 to 185 °C

We now examine a further compound.
get_value(item= COc1ccc(N2CCN(c3c(C)c(C)c4c(c3C)CC(C)(CO)O4)CC2)cc1 (stereo not given) , readout=melting point) returns 137 to 139 °C

* * *

The entries below are paired with their reported melting point.

# annotated cases, reported melting point shown
compound: O=c1[nH]c(=O)n(CCCCCl)c2ccccc12
melting point: 127 to 128 °C
//
compound: COc1cccc(OC)c1-c1cc(C(=O)NC2(C(=O)O)C3CC4CC(C3)CC2C4)nn1-c1ccc([N+](=O)[O-])cc1C (centres undefined)
melting point: 150 °C
//
compound: CC(C)n1cnc2c(NCc3ccc(O)cc3O)nc(NC[C@@H](C)O)nc21
melting point: 189 to 191 °C

get_value(item= COc1ccc(-c2ccc(OC(C)CC(C)Oc3ccc(-c4ccc(OC)cc4)cc3)cc2)cc1 (centres undefined) , readout=melting point) returns 164 °C

get_value(item= O=C1CCC(N2Cc3c(OCc4ccc(CN5CCc6cc(F)ccc6C5)cc4)cccc3C2=O)C(=O)N1 (centres undefined) , readout=melting point) returns 123 to 125 °C

* * *

measurementKind: melting point

compound: CC(C)(CCCC(=O)O)c1ccc(O)c(C(=O)O)c1
measurementKind: melting point
valueMeasured: 136 to 138 °C
--
compound: CC(=O)OCC1OC(OC2C(COC(C)=O)OC(O)(Br)C(OC(C)=O)C2OC(C)=O)C(OC(C)=O)C(OC(C)=O)C1OC(C)=O (configuration not stated)
measurementKind: melting point
valueMeasured: 97 to 99 °C
--
compound: O=C(O)c1ccc(COCc2csc3nc(C(=O)NCc4ccc(F)c(F)c4)[nH]c(=O)c23)cc1
measurementKind: melting point
valueMeasured: 249 to 251 °C
--
compound: CCOC(=O)N(Cc1ccc(F)cc1)c1ccc(C(=O)OC)cc1
measurementKind: melting point
valueMeasured: 83 to 84 °C

get_value(item= Cn1c(=O)c(NS(C)(=O)=O)c(N2CCN(C(=O)c3cccs3)CC2)c2ccccc21 , readout=melting point) returns 223 °C

get_value(item= COc1cc(OC)c2nccc(O)c2c1 , readout=melting point) returns 221 to 224 °C

get_value(item= N#CC(C(=O)Nc1cccc(C(F)(F)F)c1)C(=O)c1ccc[nH]1 (configuration not stated) , readout=melting point) returns 210 to 212 °C

* * *

The entries below are paired with their reported melting point.

# annotated cases, reported melting point shown
compound: CCCCC(CNc1ncc(OC)c(C)n1)c1ccccc1 (stereo not given)
melting point: 39 to 40 °C
//
compound: CC(C)(C)c1ccc(C(O)CCCN2CCC(=C3c4ccccc4C=Cc4ccccc43)CC2)cc1 (stereo not given)
melting point: 141 to 142 °C

get_value(item= CCOC(=O)CC(=O)c1cc(I)ccc1F , readout=melting point) returns 54 to 56 °C

get_value(item= Cc1cc(N)cc(C)c1Oc1ccc(Cl)c2c1CCCC2 , readout=melting point) returns 126 to 135 °C

get_value(item= CN(O)C(=O)C(=Cc1ccc2ccccc2c1)c1ccc(Cl)cc1 , readout=melting point) returns 140 to 142 °C

get_value(item= CS(=O)(=O)c1ccc(-c2cnn(CC(F)(F)F)c(=O)c2Oc2cc(C(F)(F)F)ccc2F)cc1 , readout=melting point) returns 133 to 135 °C

get_value(item= O=C1NCN(c2ccc(F)cc2)C12CCN(CCCN(c1ccc(F)cc1)c1ccc(F)cc1)CC2 , readout=melting point) returns 162 to 163 °C

get_value(item= O=C1NCCN1c1ccc(S(=O)(=O)Nc2cccc(Oc3ccccc3)c2)cc1 , readout=melting point) returns 208 to 211 °C

get_value(item= COC(=O)c1ccc(C(F)(F)F)cc1NC(C)=O , readout=melting point) returns 86 to 87 °C

get_value(item= COc1cc(OC)nc(Sc2cccc(C)c2C(=O)O)n1 , readout=melting point) returns 131 to 132 °C

* * *

measurementKind: melting point

compound: Cc1occc(=O)c1OCc1ccccc1
melting point: 51 to 52 °C

compound: NS(=O)(=O)c1cc(N(CCCl)CCCl)c([N+](=O)[O-])cc1[N+](=O)[O-]
melting point: 153 to 154 °C

compound: N#CCn1nnc2cc3c(cc2c1=O)OC1CCCN1C3=O (stereo unspecified)
melting point: 210 to 212 °C

get_value(item= Cc1nc(-n2cnn(CC3CC3)c2=O)sc1C(=O)NCc1ccncc1 , readout=melting point) returns 169 to 170 °C

get_value(item= COc1cccc(C(F)(F)F)c1C(=O)O , readout=melting point) returns 129 to 130 °C

get_value(item= C=CCc1cc(Br)ccc1OCC(=O)OCC , readout=melting point) returns 70.5 °C

get_value(item= CC(C)(C)OC(=O)NCCOc1noc2ccc(F)cc12 , readout=melting point) returns 104 to 105 °C

get_value(item= O=C(O)C(=O)c1ccc(OCC(=O)c2ccc3ccccc3c2)cc1 , readout=melting point) returns 167 to 170 °C

get_value(item= c1ccc2c(c1)[C@H](N1CCCCC1)C[C@@H]2N1CCCCC1 , readout=melting point) returns 114 to 115 °C

get_value(item= COc1c(N2CCN(C)CC2)c(F)cc2c(=O)c(C(=O)O)cn(C3CC3)c12 , readout=melting point) returns 221 to 222 °C

get_value(item= Cc1ccccc1CC[C@H]([C@H](C)O)n1cnc(C(N)=O)c1 , readout=melting point) returns 60 to 62 °C

get_value(item= COc1ccc(S(=O)(=O)N2C(=O)C(N)(c3cc(OC)ccc3OC)c3cc(Cl)ccc32)c(OC)c1 (stereo unspecified) , readout=melting point) returns 191 °C

* * *

measurementKind: melting point

molecule: O=C(CCc1cccc(F)c1F)c1cnc2sc3c(n12)CCCCC3
valueMeasured: 108 to 110 °C

molecule: O=C1c2cc(Br)ccc2COc2ccccc21
valueMeasured: 104 to 106 °C

get_value(item= COc1ccc2cc([C@H](C)C(=O)OCCCN3C(=O)OC[C@H]3C(C)(C)SN=O)ccc2c1 , readout=melting point) returns 116 to 117 °C

get_value(item= COc1cccc(OC)c1C(=O)C=Cc1ccccc1 , readout=melting point) returns 123 to 124 °C

get_value(item= NS(=O)(=O)c1cc2c(s1)S(=O)(=O)CCN2 , readout=melting point) returns 250 to 252 °C

get_value(item= CCS(=O)c1nsc(NC(=O)N(C)C)c1C#N (stereo unspecified) , readout=melting point) returns 162 to 163 °C
